test: yeast display, Sf9 membrane polyspecificity reagent, FACS + sequencing; frameworks hold sequencing errors
Outcome measure: polyreactivity (PSR sort gate)

Example cases with answers are listed next.
| Residue sequence | polyreactivity (PSR sort gate) |
| --- | --- |
| QVKLVESGGGLVQAGGSLRLSCDASGSTFIANTMGWYRQAPGKERELVAAITDSGGSTYYADSVKGRFTISRDNAKNTVYLQMNSLKPEDTAVYYCNADYVYVFIRAWSYDYWGQGTQVTVSS | low polyreactivity |
| QVQLVESGGGLVQAGCSLRLSCAASGYIFYPYAMGWYRQAPGKERELVAAISGSGSGTYYADSVKGRFTISRDNAKNTVYLQMNSLKPEDTADYYCAKYVYDNVWMDYWGQGTQVTVSS | high polyreactivity |
| QVQLVESGGGLVQAGGSLRLSCAASGRLFVYNAMGWYRQAPGKERELVAAISWRGGSTYYADSVKGRFTISRDNAKNTVYLQMYSLKPEDTAVYDCAAQRTARQFDYWGQGTQVTVSS | high polyreactivity |
| QVQLVESGGGLVQAGGSLRLSCAASGSTFKSYAMGWYRQAPGKERELVAAITHRGSTYYADSVKGRFTISRDNAKNTVYLQMNSLKPEDTAVYYCAASLRAPSLGHYYYWGQGTQVTVSS | high polyreactivity |
| PVQLVESGGGLVQAGGSLRLICAASALTFPPYSMGWYRQAPAKERELVAAISRNAGNTYYADSVKGRFTISRDTAKNTVYLQMNSLKPEDTAVYYCAAKRGTQGMYYWGQGTQVTVSS | high polyreactivity |

Query: Please report the recorded polyreactivity (PSR sort gate) for QVQLVESGGGLVQAGGSLRLSCAASGIIFRLYAMGWYRQAPGKERELVAAITSRGGSTYYADSVKGRFTISRDNAKKTVYLQMNSLKPEDTAVYYCAARPVYSGYDYWGQGTQVTVSS .
Result: high polyreactivity

Query: Please report the recorded polyreactivity (PSR sort gate) for QVQLVESGGGLVQAGGSLRLSCAASGSTFVKYAMGWYRQAPGKERELVAAINRSGASTYYADSVKGRFTISRDNAKNTVYLQMNSLKPEDTAVYYCAARFSWVGYYWGQGTQVTVSS .
Result: high polyreactivity

Query: Please report the recorded polyreactivity (PSR sort gate) for QVQLVESGGGLVQAGGSLRLSFAASGFTFSAYAMGWYRQAPGKERELVASISGSAGSTYYADTVKGRFTISRYNAKNTVYLHMNSLKPEDTAVYYCNARRRQWQARYDYWGQGTQITVSS .
Result: high polyreactivity

Query: Please report the recorded polyreactivity (PSR sort gate) for QVQLVESGGGLVQAGGSLRLSCAASGFTFARYALGWYRQAPGKERELVAGITYRGGRTYYADSVKGRFTISRDNEKNTVYLQMNRLKPEDTAVYYCARYGPIKYYSWGQGTQVTVSS .
Result: high polyreactivity

Query: Please report the recorded polyreactivity (PSR sort gate) for QVQLVESAGGLVQAGGSLRLSCSASGLTFVPNAMGWYRQAPGKERELVATISSSGGRTTYADSVKGRFTISRDKAKNTVYLQMNSLKPEDTAVYYCADQGYWTGYDYWGQGTQVTVSS .
Result: high polyreactivity

Query: Please report the recorded polyreactivity (PSR sort gate) for QDQLVESGGGLVQAGGRLRLSCAASGSIFNYYTMGWYRQAPGKETELVAAITWSGGRTYYADSVKGRFTISRDNAKNTVYLQMNSLKPEDTAVYYCNAVAYKPGGGEDFESWGQGTQVTVSS .
Result: high polyreactivity

Query: Please report the recorded polyreactivity (PSR sort gate) for QVQLVESGGGLVQAGGSLRLSCAASGNIFGYYAMGWYRQAPGKERELVAAITTTGGSTYYADSVKGRFTISRDNAKNTVYLQMNSLKPEDTAVYYCAAETGYWYYYWGQGTQVTVSS .
Result: high polyreactivity

Query: Please report the recorded polyreactivity (PSR sort gate) for QVQLVESGGGLVKAGGSLRLTCAASGSIFKIYSMGWYIQAPGKERELVATITWSTGTTYYADSVKGRFTISRDNAKNTVFLQMNSLKPEDTAVYYCATEPSWYHGFIDPRGYWGQATQVTVSS .
Result: low polyreactivity

Query: Please report the recorded polyreactivity (PSR sort gate) for QVQLVESGGGLVQAGGSLRLSCAASGFIFGNNDRGWYRQAPGKERELVAGITWSGSSTYYADSVKGRFTISRDNAKNTVYLQMNSLKPEDTAVYYCIRVFTWRYGYRYEYWGQGTQVTVSS .
Result: high polyreactivity

* * *

assay: yeast display, Sf9 membrane polyspecificity reagent, FACS + sequencing; frameworks hold sequencing errors
Outcome measure: polyreactivity (PSR sort gate)

Example cases with answers are listed next.
| Residue sequence | Outcome measure | Val |
| --- | --- | --- |
| QVQLVESGGGLLQAGGSLRLSCAASGNTFAYNTMGWYIQAPGKERELVAAILTRGGSTYYADSVKGRFTISRDNAKKTVYLQMNSLNREDTAVYYGAADYRFHGYWSYDYWGQGTQVTVSS | polyreactivity (PSR sort gate) | low polyreactivity |
| QVQLVESGGGLVLAGGSLRLTWAASGSIFHYYAMGWYRQAPGKERELVAAISWSGGRTYYADSVKGRFTISRDNAKNTVYLEMNSLKPEDTAVYFCAADTYPYIGGYYWGQGTQVTVSS | polyreactivity (PSR sort gate) | high polyreactivity |
| QVQLVESGGGLVQAGGSLRLSCAASGFIFGKYAMGWYRQAPGKERELVAAITSDGRTYYADSVKGRFTISRDNAKNTVYLQMNSLKPEDTAVYYSAATRYGHRYYYRPYEYWGQGSQVTVSS | polyreactivity (PSR sort gate) | high polyreactivity |
| QVQLVESGGGLVHAGGSLRLSCAASGSTFSWYVMGWYRQAPGKERELVAAISYRGGRTYYADSVKGRFTISRDNAKNTVYLHMNSLKTEDTAVYYCAARGVVDAGRTNRPYDYWGQGTQVTVSS | polyreactivity (PSR sort gate) | low polyreactivity |

Turning to the following sequence.
Query: Please report the recorded polyreactivity (PSR sort gate) for QVQLVESGGGLDQAGGSLRLSCAASGSIFFYNVLGWYRQAPGKERELVASISWRGASTYYADSVKGRFTISRDNAKNTVYLQMNSLKPEDTAVYYCAARFRSATRYQTGYYWGQGTQVTVSS .
Result: high polyreactivity

* * *

experiment: yeast display, Sf9 membrane polyspecificity reagent, FACS + sequencing; frameworks hold sequencing errors
Outcome measure: polyreactivity (PSR sort gate)

Example cases with answers are listed next.
| Residue sequence | Val |
| --- | --- |
| QVQLVESGGGLVQAGGSLRLSCAASGFIFASYAMGWYRQAPVKERELVAAISSCGGRTYYADSVKGRFTISRDNAKNTVNLQMNSLKPEDTAVYYCAADWRFTYDYWGQGTQVTVSS | high polyreactivity |
| QVQLVESGGGIVQAGGSLRLSCAASGFTIPRYAMGWYRQAPGKERELVAAITVGGGRTYYADSVKGRFTISRDNAKNTVYLQMNSLKPEDTAVYYCAADSHASTYDYWGQGTQVTVSS | low polyreactivity |
| QGQLVESGGGLVQAGGSLRLSCAPTGRTFAHYARGWYRQAHWTERELVAGITRRAGSTYYADSVKGRFTISRDNAKHSVYLHMNSLKPEETEVYYCAAPRDWDAGDYWGQGTQVTVSS | high polyreactivity |
| QVQLVESGGGLVQAGGSLRLSCAAAGSTFHRYVMGWYRQAPGQERELVAVINSTGGSTYYADSVKGRFTISRDNAKNTVYLQMKCLKPEDTAVYYCARVTRRGPGYSTLFSRYDYWGQGTQVTVSS | low polyreactivity |
| QVQLVESGGGLVQAGGSLRLTCAASGRTFRKNAMGWYRQAPGKERELVAAITGSSGTTYYADSVKGRFTISRDNAKNTVYLQMNSLKPEDTAVYYCATTVGDPGRRYYYWGQGTQVTVSS | high polyreactivity |

Query: Please report the recorded polyreactivity (PSR sort gate) for QVQLVESGGGLVQAGGSLRLSCAASGFILGTYAMGWYRQAPGKERELVAAISRSGGSTYYADSVKGRFTISRDNAKNSVYLQMNSLKPEDTAVYYCNTVRVHGFPIDRIYDYWGQGTQVTVSS .
Result: high polyreactivity

Query: Please report the recorded polyreactivity (PSR sort gate) for QVQLVESGGGLVQAGGSLRLSCAASGRIFRQNVMGWYRQAPGKERELVAGISRSGSGTRYADSVKGRFTISRDNAKNTVYLQMNSLKPEDTAVYYCNTLVPFSTWRYGYWGQGTQVTVSS .
Result: high polyreactivity

Query: Please report the recorded polyreactivity (PSR sort gate) for QVQLVESGGGLVQAGGSLRLSCAASGLIFAWYAMGWYRQAPGKERELVATISWNGDRTYYADSVKGRFTISRDNAKNTVYLQMNSLKPEDTAVYYCAARFGSGFNYWGQGTQVTVSS .
Result: high polyreactivity

Query: Please report the recorded polyreactivity (PSR sort gate) for QVQLVESGGGLVQAGGSLRLSCAASGITLTKNAMGWYRQAPGKERELVAGITRGSRTNYADSVKGRFTISRDNAKNTVYLQMNSLKPEDTAVYYCAASYWPYRGPVGGSKMYYWGQGTQVTVSS .
Result: high polyreactivity

Query: Please report the recorded polyreactivity (PSR sort gate) for QVQLVESGGGLVQAGGSLRLSCAASGRIFYFYAMGWYRQAPGKERELVASISSGGITNYADSVKGRFTISRDNAKNTVYLQMNSLKPEDTAVYYCNAGYASGKYSGGYLYGYWGQGTQVTVSS .
Result: low polyreactivity
